System: Staphylococcus aureus 2012 (VISA)
ASSAY_NAME: MIC by broth microdilution, SA 2012
Type: cell-based
SETTINGS: Staphylococcus aureus 2012 (VISA); class symbols; read-out: MIC SA 2012
ASSAY_READOUT: MIC

// worked examples, MIC included
CCCCCCc1ccc(S(=O)(=O)NCCOCCNCc2c(O)cc3c(c2O)-c2cc(ccc2O)[C@H]2NC(=O)[C@@H]4NC(=O)[C@H](CC(N)=O)NC(=O)[C@H](NC(=O)[C@@H](CC(C)C)NC)[C@H](O)c5ccc(c(Cl)c5)Oc5cc4cc(c5O[C@@H]4O[C@H](CO)[C@@H](O)[C@H](O)[C@H]4O[C@H]4C[C@]5(C)NC(=O)O[C@@H]5[C@H](C)O4)Oc4ccc(cc4Cl)[C@@H](O)[C@H](NC2=O)C(=O)N[C@@H]3C(=O)O)cc1 (atropisomer, axis not shown)    0.5 to 1 µg/mL
CCCCCCc1ccc(S(=O)(=O)NCCCCCCNCc2c(O)cc3c(c2O)-c2cc(ccc2O)[C@H]2NC(=O)[C@@H]4NC(=O)[C@H](CC(N)=O)NC(=O)[C@H](NC(=O)[C@@H](CC(C)C)NC)[C@H](O)c5ccc(c(Cl)c5)Oc5cc4cc(c5O[C@@H]4O[C@H](CO)[C@@H](O)[C@H](O)[C@H]4O[C@H]4C[C@](C)(NC(=O)CCCCCN)[C@H](O)[C@H](C)O4)Oc4ccc(cc4Cl)[C@@H](O)[C@H](NC2=O)C(=O)N[C@@H]3C(=O)O)cc1 (atropisomer, axis not shown)    0.01 to 0.5 µg/mL

[ask] Item: CCCCCCc1ccc(S(=O)(=O)NCCCCCCNCc2c(O)cc3c(c2O)-c2cc(ccc2O)[C@H]2NC(=O)[C@@H]4NC(=O)[C@H](CC(N)=O)NC(=O)[C@H](NC(=O)[C@@H](CC(C)C)NC)[C@H](O)c5ccc(c(Cl)c5)Oc5cc4cc(c5O[C@@H]4O[C@H](CO)[C@@H](O)[C@H](O)[C@H]4O[C@H]4C[C@](C)(NC(=O)NC5CC5)[C@H](O)[C@H](C)O4)Oc4ccc(cc4Cl)[C@@H](O)[C@H](NC2=O)C(=O)N[C@@H]3C(=O)O)cc1 (atropisomer, axis not shown) Test system: Staphylococcus aureus 2012 (VISA) Read-out: MIC Value: ?
[reply] 0.01 to 0.5 µg/mL

====

As shown below, each of these molecules has a reported MIC value.
Tested on: Staphylococcus aureus 757 (MRSA)
ASSAY_NAME: MIC by broth microdilution, SA 757
Type: cell-based
SETTINGS: Staphylococcus aureus, MRSA, read-out: MIC SA 757
Procedure: Antibacterial activity in vitro is investigated by broth microdilution method in Meuller-Hinton broth as recommended by NCCLS. All strains tested are clinical isolates either sensitive or resistant to natural glycopeptides. MIC values were determined using the CLSI-recommended broth microdilution procedure (Clinical and Laboratory Standards Institute, Methods for Dilution Antimicrobial Susceptibility Tests for Bacteria That Grow Aerobically; Approved Standard-Seventh Edition.). […]

CCCCCCCOc1ccc(S(=O)(=O)NCCCCCCNC(=O)Oc2cc(O)c3c(c2)[C@@H](C(=O)O)NC(=O)[C@H]2NC(=O)[C@H](NC(=O)[C@@H]4NC(=O)[C@H](CC(N)=O)NC(=O)[C@H](NC(=O)[C@@H](CC(C)C)NC)[C@H](O)c5ccc(c(Cl)c5)Oc5cc4cc(c5O[C@@H]4O[C@H](CO)[C@@H](O)[C@H](O)[C@H]4O[C@H]4C[C@](C)(N)[C@H](O)[C@H](C)O4)Oc4ccc(cc4Cl)[C@H]2O)c2ccc(O)c-3c2)cc1 (atropisomer, axis not shown) [Compound 355]    0.01 to 0.5 µg/mL

Okay, next one:
[ask] Consider the molecule shown here: CCCCCOCCNC(=O)Oc1cc(O)c2c(c1)[C@@H](C(=O)NC1C3CC4CC(C3)CC1C4)NC(=O)[C@H]1NC(=O)[C@H](NC(=O)[C@@H]3NC(=O)[C@H](CC(N)=O)NC(=O)[C@H](NC(=O)[C@@H](CC(C)C)NC)[C@H](O)c4ccc(c(Cl)c4)Oc4cc3cc(c4O[C@@H]3O[C@H](CO)[C@@H](O)[C@H](O)[C@H]3O[C@H]3C[C@](C)(N)[C@H](O)[C@H](C)O3)Oc3ccc(cc3Cl)[C@H]1O)c1ccc(O)c-2c1 (some centres unmarked) [Compound 340] What is its recorded MIC?
[reply] 0.01 to 0.5 µg/mL

====

Test system: Enterococcus faecium 800
ASSAY_NAME: MIC by broth microdilution, EFcm 800
Type: cell-based
SETTINGS: Enterococcus faecium, 800, read-out: MIC E FCM 800
ASSAY_READOUT: MIC (µg/mL)
Give the value, in units of µg/mL, as a plain number.

[ask] Consider the compound shown here: CN[C@H](CC(C)C)C(=O)N[C@H]1C(=O)N[C@@H](CC(N)=O)C(=O)N[C@H]2C(=O)N[C@H]3C(=O)N[C@H](C(=O)N[C@H](C(=O)O)c4cc(O)cc(O)c4-c4cc3ccc4O)[C@H](O)c3ccc(c(Cl)c3)Oc3cc2cc(c3O[C@@H]2O[C@H](CO)[C@@H](O)[C@H](O)[C@H]2O[C@H]2C[C@](C)(N)[C@H](O)[C@H](C)O2)Oc2ccc(cc2Cl)[C@H]1O [Vancomycin, vancomycin, reference compound] What is its recorded MIC?
[reply] 1

====

Test system: Enterococcus faecalis 848 (VRE, Van A)
ASSAY_NAME: MIC by broth microdilution, EFc 848
Format: cell-based
SETTINGS: Enterococcus faecalis, VRE, read-out: MIC E FC 848, Enterococcus faecalis 848 (VRE, Van A); class symbols
ASSAY_READOUT: MIC

[ask] Consider the compound shown here: CCCCCCc1ccc(NC(=O)NCCCCCCNC(=O)Oc2cc(O)c3c(c2)[C@@H](C(=O)O)NC(=O)[C@H]2NC(=O)[C@H](NC(=O)[C@@H]4NC(=O)[C@H](CC(N)=O)NC(=O)[C@H](NC(=O)[C@@H](CC(C)C)NC)[C@H](O)c5ccc(c(Cl)c5)Oc5cc4cc(c5O[C@@H]4O[C@H](CO)[C@@H](O)[C@H](O)[C@H]4O[C@H]4C[C@](C)(N)[C@H](O)[C@H](C)O4)Oc4ccc(cc4Cl)[C@H]2O)c2ccc(O)c-3c2)cc1 (atropisomer, axis not shown) [Compound 354] What is its recorded MIC?
[reply] 2 to 4 µg/mL

[ask] Would you kindly repeat that for CCCCOc1ccc(CCNC(=O)Oc2cc(O)c3c(c2)[C@@H](C(=O)O)NC(=O)[C@H]2NC(=O)[C@H](NC(=O)[C@@H]4NC(=O)[C@H](CC(N)=O)NC(=O)[C@H](NC(=O)[C@@H](CC(C)C)NC)[C@H](O)c5ccc(c(Cl)c5)Oc5cc4cc(c5O[C@@H]4O[C@H](CO)[C@@H](O)[C@H](O)[C@H]4O[C@H]4C[C@](C)(N)[C@H](O)[C@H](C)O4)Oc4ccc(cc4Cl)[C@H]2O)c2ccc(O)c-3c2)cc1 (atropisomer, axis not shown) [Compound 351] ?
[reply] > 16 µg/mL

[ask] Would you kindly repeat that for CCCCCCOc1ccc(S(=O)(=O)NCCCCCCNC(=O)Oc2cc(O)c3c(c2)[C@@H](C(=O)O)NC(=O)[C@H]2NC(=O)[C@H](NC(=O)[C@@H]4NC(=O)[C@H](CC(N)=O)NC(=O)[C@H](NC(=O)[C@@H](CC(C)C)NC)[C@H](O)c5ccc(c(Cl)c5)Oc5cc4cc(c5O[C@@H]4O[C@H](CO)[C@@H](O)[C@H](O)[C@H]4O[C@H]4C[C@](C)(N)[C@H](O)[C@H](C)O4)Oc4ccc(cc4Cl)[C@H]2O)c2ccc(O)c-3c2)cc1 (atropisomer, axis not shown) [Compound 349] ?
[reply] 4 to 8 µg/mL

[ask] Would you kindly repeat that for CCCCCCc1ccc(S(=O)(=O)NCCCCCCNC(=O)Oc2cc(O)c3c(c2)[C@@H](C(=O)O)NC(=O)[C@H]2NC(=O)[C@H](NC(=O)[C@@H]4NC(=O)[C@H](CC(N)=O)NC(=O)[C@H](NC(=O)[C@@H](CC(C)C)NC)[C@H](O)c5ccc(c(Cl)c5)Oc5cc4cc(c5O[C@@H]4O[C@H](CO)[C@@H](O)[C@H](O)[C@H]4O[C@H]4C[C@](C)(N)[C@H](O)[C@H](C)O4)Oc4ccc(cc4Cl)[C@H]2O)c2ccc(O)c-3c2)cc1 (atropisomer, axis not shown) [Compound 352] ?
[reply] 2 to 4 µg/mL

[ask] Would you kindly repeat that for CNCCCOc1ccc(NC(=O)Oc2cc(O)c3c(c2)[C@@H](C(=O)NC2C4CC5CC(C4)CC2C5)NC(=O)[C@H]2NC(=O)[C@H](NC(=O)[C@@H]4NC(=O)[C@H](CC(N)=O)NC(=O)[C@H](NC(=O)[C@@H](CC(C)C)NC)[C@H](O)c5ccc(c(Cl)c5)Oc5cc4cc(c5O[C@@H]4O[C@H](CO)[C@@H](O)[C@H](O)[C@H]4O[C@H]4C[C@](C)(N)[C@H](O)[C@H](C)O4)Oc4ccc(cc4Cl)[C@H]2O)c2ccc(O)c-3c2)cc1 (some centres unmarked) [Compound 333] ?
[reply] > 16 µg/mL
